- ASSAY: THESA assay, thermodynamic solubility
- Format: physicochemical
- EXPERIMENTAL_SETUP: 22.5 °C, aqueous buffer, thermodynamic from solid; 50 mM phosphate buffer, room temperature (22.5±1° C.)
The threshold is inclusive: solubility thermodynamic of exactly 0.1 mg/mL counts as Y; values below receive N.

Before answering, review these 3 worked examples.
- CC(O)(C(=O)NCC(F)(F)C(F)(F)F)C(=O)N[C@H]1CN(CCCC(F)(F)F)c2ccccc2NC1=O (single isomer, unassigned): Y
- CC(O)(C(=O)NCC(F)(F)C(F)(F)F)C(=O)N[C@H]1CN(C(=O)OCC(F)(F)F)c2ccccc2NC1=O (single isomer, unassigned): N
- CC(O)(C(=O)NCC(F)(F)C(F)(F)F)C(=O)N[C@H]1CN(C(=O)OCC(F)(F)F)c2ccccc2N(CCO)C1=O (single isomer, unassigned): Y

stdin: Determine whether this compound has solubility thermodynamic no lower than 0.1 mg/mL: CC(O)(C(=O)NCC(F)(F)C(F)(F)F)C(=O)N[C@H]1CN(CCO)c2ccccc2N(CC(F)(F)F)C1=O (single isomer, unassigned)
stdout: Y

stdin: Tell me whether solubility thermodynamic is at least 0.1 mg/mL here: CC(O)(C(=O)NCC(F)(F)C(F)(F)F)C(=O)N[C@H]1CN(CCC(F)(F)F)c2ccccc2NC1=O (single isomer, unassigned)
stdout: N

stdin: Record CC(O)(C(=O)NCC(F)(F)C(F)(F)F)C(=O)N[C@H]1CN(CC(F)(F)F)c2ccccc2N(CCO)C1=O (single isomer, unassigned) ; criterion: solubility thermodynamic no lower than 0.1 mg/mL. Met?
stdout: Y

stdin: Tell me whether solubility thermodynamic is at least 0.1 mg/mL here: CC(O)(C(=O)NCC(F)(F)C(F)(F)F)C(=O)N[C@H]1CN(C(=O)OCC(F)(F)F)c2cc(F)c(F)cc2NC1=O (single isomer, unassigned)
stdout: N

stdin: Hello, I need to know if CC(O)(C(=O)NCC(F)(F)C(F)(F)F)C(=O)N[C@H]1CN(C(=O)OCCO)c2ccccc2N(CCO)C1=O (single isomer, unassigned) has measured solubility thermodynamic not below 0.1 mg/mL. Thanks!
stdout: Y

* * *

microsomal CLint at 10 μM values for the molecules below.
- ASSAY: Microsome incubation, metabolic stability (mouse)
- Assay type: in vitro ADME
- EXPERIMENTAL_SETUP: pH 7.4, liver microsomes, test compound 10 μM, 37° C., read-out: Intrinsic clearance (mouse)
# unit: µL/min/mg | format: bare number

In the examples that follow, each entry is paired with its recorded microsomal CLint at 10 μM.
• CC(O)(C(=O)NCC(F)(F)C(F)(F)F)C(=O)N[C@H]1CN(C(=O)OCC(F)(F)F)c2ccccc2N(CC(F)(F)F)C1=O (single isomer, unassigned) = 10.6
• CC(O)(C(=O)NCC(F)(F)C(F)(F)F)C(=O)N[C@H]1CN(CC(F)(F)F)c2ccc(F)cc2NC1=O (single isomer, unassigned) = 126
• CC(O)(C(=O)NCC(F)(F)C(F)(F)F)C(=O)N[C@H]1CN(C(=O)OCC(F)(F)F)c2cc(F)c(F)cc2N(CC(F)(F)F)C1=O (single isomer, unassigned) = 6.5
• CC(O)(C(=O)NCC(F)(F)C(F)(F)F)C(=O)N[C@H]1CN(CC(F)(F)F)c2ccccc2NC1=O (single isomer, unassigned) = 130
• CC(O)(C(=O)NCC(F)(F)C(F)(F)F)C(=O)N[C@H]1CN(CC(F)(F)F)c2ccccc2N(CCO)C1=O (single isomer, unassigned) = 65.2

stdin: // microsomal CLint at 10 μM lookup, key: CC(O)(C(=O)NCC(F)(F)C(F)(F)F)C(=O)N[C@H]1CN(C(=O)OCCO)c2ccccc2N(CCO)C1=O (single isomer, unassigned)
stdout: 12.3

stdin: What does the record list as microsomal CLint at 10 μM for CC(O)(C(=O)NCC(F)(F)C(F)(F)F)C(=O)N[C@H]1CN(C(=O)OCC(F)(F)F)c2ccccc2N(CCO)C1=O (single isomer, unassigned) ?
stdout: 0.9

stdin: Could you share which microsomal CLint at 10 μM value was measured for CC(O)(C(=O)NCC(F)(F)C(F)(F)F)C(=O)N[C@H]1CN(CCC(F)(F)F)c2ccccc2NC1=O (single isomer, unassigned) ?
stdout: 262

stdin: Which microsomal CLint at 10 μM is listed for CC(O)(C(=O)NCC(F)(F)C(F)(F)F)C(=O)N[C@H]1CN(C(=O)OCC(F)(F)F)c2ccccc2NC1=O (single isomer, unassigned) ?
stdout: 5.4

stdin: Entry CC(O)(C(=O)NCC(F)(F)C(F)(F)F)C(=O)N[C@H]1CN(CCO)c2ccccc2N(CC(F)(F)F)C1=O (single isomer, unassigned) has what microsomal CLint at 10 μM?
stdout: 52.7

stdin: Quick one: microsomal CLint at 10 μM of CC(O)(C(=O)NCC(F)(F)C(F)(F)F)C(=O)N[C@H]1CN(CCO)c2ccccc2NC1=O (mixture of isomers) ?
stdout: 32.5

stdin: For the molecule CC(O)(C(=O)NCC(F)(F)C(F)(F)F)C(=O)N[C@H]1CN(CCCC(F)(F)F)c2ccccc2NC1=O (single isomer, unassigned) , what microsomal CLint at 10 μM is on record?
stdout: 94.9

stdin: Find the recorded microsomal CLint at 10 μM belonging to CC(O)(C(=O)NCC(F)(F)C(F)(F)F)C(=O)N[C@H]1CN(C(=O)OCC(F)(F)F)c2cc(F)c(F)cc2NC1=O (single isomer, unassigned) and report it.
stdout: 22.4

* * *

- ASSAY: THESA assay, thermodynamic solubility
- Type: physicochemical
- EXPERIMENTAL_SETUP: 22.5 °C, aqueous buffer, thermodynamic from solid; comparison table; 50 mM phosphate buffer, room temperature
MEASUREMENT_LABEL: solubility thermodynamic (µg/mL)
Output spec: scalar in µg/mL, unitless text.

stdin: What solubility thermodynamic value was documented for this compound, CC(C)(C(=O)NCC(F)(F)C(F)(F)F)C(=O)N[C@H]1CN(C(=O)OCC(F)(F)F)c2ccccc2N(CC(F)(F)F)C1=O [reference compound] ?
stdout: 16

stdin: For the compound shown here, CC(O)(C(=O)NCC(F)(F)C(F)(F)F)C(=O)N[C@H]1CN(C(=O)OCC(F)(F)F)c2ccccc2N(CC(F)(F)F)C1=O (single isomer, unassigned) , give the reported solubility thermodynamic.
stdout: 37

* * *

In this section, each of the compounds is paired with its reported MAB (mouse).
- ASSAY: Microsome incubation, metabolic stability (mouse)
- Type: in vitro ADME
- EXPERIMENTAL_SETUP: maximal achievable bioavailability = 1-E, extrapolated from intrinsic clearance
Your answer should be a number followed by the unit of measure.

Some entries whose results are on file:
• CC(O)(C(=O)NCC(F)(F)C(F)(F)F)C(=O)N[C@H]1CN(CC(F)(F)F)c2ccccc2N(CCO)C1=O (single isomer, unassigned) [Example 9] = 32.7%
• CC(O)(C(=O)NCC(F)(F)C(F)(F)F)C(=O)N[C@H]1CN(CCO)c2ccccc2NC1=O (mixture of isomers) [Example 7] = 49.3%

Let us move to another entry and its MAB (mouse).
stdin: Return reported MAB (mouse); argument: CC(O)(C(=O)NCC(F)(F)C(F)(F)F)C(=O)N[C@H]1CN(C(=O)OCCO)c2ccccc2N(CCO)C1=O (single isomer, unassigned) [Example 14]
stdout: 72.1%

* * *

- ASSAY: Microsome incubation, metabolic stability (mouse)
- Format: in vitro ADME
- EXPERIMENTAL_SETUP: comparison table
Cut-off 50% on MAB (mouse), inclusive. At or above means criterion met; below means criterion not met.

A selection of reference data follows.
• CC(O)(C(=O)NCC(F)(F)C(F)(F)F)C(=O)N[C@H]1CN(CC(F)(F)F)c2ccccc2NC1=O (single isomer, unassigned) = criterion not met
• CC(C(=O)NCC(F)(F)C(F)(F)F)C(=O)N[C@H]1CN(C(=O)OCC2CC2)c2ccccc2N(CC(F)(F)F)C1=O (some centres unmarked) [reference compound] = criterion not met
• CC(C)(C(=O)NCC(F)(F)C(F)(F)F)C(=O)N[C@H]1CN(C(=O)OCC(F)(F)F)c2ccccc2N(CC(F)(F)F)C1=O [reference compound] = criterion not met

stdin: Check if MAB (mouse) >= 50% (inclusive). Item: CC(C)(C(=O)NCC(F)(F)C(F)(F)F)C(=O)N[C@H]1CN(CC(F)(F)F)c2ccccc2NC1=O [reference compound]
stdout: criterion not met

stdin: Item CC(O)(C(=O)NCC(F)(F)C(F)(F)F)C(=O)N[C@H]1CN(C(=O)OCC(F)(F)F)c2ccccc2N(CC(F)(F)F)C1=O (single isomer, unassigned) with MAB (mouse) of 50% or above?
stdout: criterion met

* * *

Here the recorded MAB (human) is given for each entry.
- ASSAY: Microsome incubation, metabolic stability (human)
- Assay type: in vitro ADME
- EXPERIMENTAL_SETUP: human; maximal achievable bioavailability = 1-E, extrapolated from intrinsic clearance
API: value field is a number in %; no unit string.

• CC(O)(C(=O)NCC(F)(F)C(F)(F)F)C(=O)N[C@H]1CN(CCCC(F)(F)F)c2ccccc2NC1=O (single isomer, unassigned) = 49.4

stdin: Recorded MAB (human) of CC(O)(C(=O)NCC(F)(F)C(F)(F)F)C(=O)N[C@H]1CN(CCO)c2ccccc2NC1=O (mixture of isomers) , please.
stdout: 74.9

stdin: Which MAB (human) value belongs to CC(O)(C(=O)NCC(F)(F)C(F)(F)F)C(=O)N[C@H]1CN(C(=O)OCC(F)(F)F)c2cc(F)c(F)cc2N(CC(F)(F)F)C1=O (single isomer, unassigned) ?
stdout: 54.3

stdin: GET /values?readout=MAB (human)&item= CC(O)(C(=O)NCC(F)(F)C(F)(F)F)C(=O)N[C@H]1CN(C(=O)OCC(F)(F)F)c2cc(F)c(F)cc2NC1=O (single isomer, unassigned)
stdout: 99.7

stdin: What does the data say about its MAB (human)? Entry: CC(O)(C(=O)NCC(F)(F)C(F)(F)F)C(=O)N[C@H]1CN(CC(F)(F)F)c2ccccc2N(CCO)C1=O (single isomer, unassigned)
stdout: 88.2

stdin: Could you share which MAB (human) value was measured for CC(O)(C(=O)NCC(F)(F)C(F)(F)F)C(=O)N[C@H]1CN(C(=O)OCC(F)(F)F)c2ccccc2NC1=O (single isomer, unassigned) ?
stdout: 100.0

stdin: Query (compound): CC(O)(C(=O)NCC(F)(F)C(F)(F)F)C(=O)N[C@H]1CN(CCC(F)(F)F)c2ccccc2NC1=O (single isomer, unassigned) ; field requested: MAB (human)
stdout: 45.5

stdin: Name the reported MAB (human) value associated with the compound CC(O)(C(=O)NCC(F)(F)C(F)(F)F)C(=O)N[C@H]1CN(CC(F)(F)F)c2ccc(F)cc2NC1=O (single isomer, unassigned)
stdout: 56.7

stdin: Which MAB (human) is reported for this compound? CC(O)(C(=O)NCC(F)(F)C(F)(F)F)C(=O)N[C@H]1CN(C(=O)OCCO)c2ccccc2N(CCO)C1=O (single isomer, unassigned)
stdout: 53.3

stdin: Can you look up the measured MAB (human) of CC(O)(C(=O)NCC(F)(F)C(F)(F)F)C(=O)N[C@H]1CN(C(=O)OCCCC(F)(F)F)c2ccccc2N(CCCC(F)(F)F)C1=O (single isomer, unassigned) for me?
stdout: 87.4

stdin: Fill in the blank: the reported MAB (human) of CC(O)(C(=O)NCC(F)(F)C(F)(F)F)C(=O)N[C@H]1CN(CC(F)(F)F)c2ccccc2NC1=O (single isomer, unassigned) is ____.
stdout: 55.5
